System: human esophageal epithelial cell SHEE
METHOD_DESCRIPTION: MTT assay, toxicity against normal cells
Type: cell-based
STATED_CONDITIONS: MTT, normal human esophageal epithelial cells, mean ± SD, read-out: IC50 SHEE
IC50 strictly less than 8 µM = met. Otherwise not met.

{"columns": ["SMILES_STRING", "CLASS"],
 "data": [
  ["COCCOc1cc2ncnc(Nc3cccc(-c4cn(-c5cccc([N+](=O)[O-])c5)nn4)c3)c2cc1OCCOC", "not met"],
  ["COCCOc1cc2ncnc(Nc3cccc(-c4cn(-c5ccccc5F)nn4)c3)c2cc1OCCOC", "not met"],
  ["COCCOc1cc2ncnc(Nc3cccc(-c4cn(-c5ccccc5Cl)nn4)c3)c2cc1OCCOC", "met"],
  ["COCCOc1cc2ncnc(Nc3cccc(-c4cn(-c5cccc(OC)c5)nn4)c3)c2cc1OCCOC", "not met"],
  ["COCCOc1cc2ncnc(Nc3cccc(-c4cn(-c5ccc(C)cc5)nn4)c3)c2cc1OCCOC", "met"],
  ["COCCOc1cc2ncnc(Nc3cccc(-c4cn(-c5ccccc5C(F)(F)F)nn4)c3)c2cc1OCCOC", "not met"]
]}

src = paper PMC9065260
